Recorded values, source patent US20230301300A1.

Overview of reported Herbicidal activity TRZAW across a group of compounds:
Test system: Triticum aestivum (TRZAW)
Assay: B2 Post-Emergence Efficacy - Test 2
Type: in vivo
Settings: 250 g/Ha, 15 days after application, 0-100 scale
Experimental: Seeds of a variety of test species (see Table B1) were sown in standard soil in pots. […] After application, the test plants were grown in a glasshouse under controlled conditions (as above) and watered twice daily. Herbicidal activity was evaluated 15 days after application on a 0-100 scale. […]
Field format: numeric only.

Some entries whose results are on file:
Cc1nn(C)c(=O)c(-c2c(F)ccc(Cl)c2CCc2ccc(C#N)cc2)c1O; 60
Cc1nn(C)c(=O)c(-c2c(F)ccc(Cl)c2CCc2ccc(Cl)cc2)c1OC(=O)C(C)C; 60
Cc1nn(C)c(=O)c(-c2c(F)ccc(Cl)c2CCc2ccccc2C(F)(F)F)c1O; 70
Cc1nn(C)c(=O)c(-c2c(F)ccc(Cl)c2CCc2ccc(F)cc2)c1O; 50

In: Would you mind telling me what Herbicidal activity TRZAW value was observed for Cc1nn(C)c(=O)c(-c2c(F)ccc(Cl)c2CCc2ccc(C(F)(F)F)nc2)c1O ?
Out: 80

In: What do you get for Cc1nn(C)c(=O)c(-c2c(F)ccc(Cl)c2CCc2ccc(F)cc2)c1OC(=O)C(C)C ?
Out: 30

----------
System: Panicum miliaceum (PANMI)
Assay: B2 Post-Emergence Efficacy - Test 2
Type: in vivo
Conditions: 60 g/Ha, 15 days after application, 0=no damage, 100=total kill
metric name: Herbicidal activity on a 0-100 scale, PANMI
Field format: numeric only.

Some entries whose results are on file:
Cc1nn(C)c(=O)c(-c2c(F)ccc(Cl)c2CCc2ccc(Cl)cc2)c1OC(=O)C(C)C [Compound 1.089]; 50
Cc1nn(C)c(=O)c(-c2c(F)ccc(Cl)c2CCc2ccc(F)cc2)c1OC(=O)C(C)C [Compound 1.125]; 50
Cc1nn(C)c(=O)c(-c2c(F)ccc(Cl)c2CCc2ccccc2C(F)(F)F)c1O [Compound 1.066]; 60

In: Would you mind telling me what Herbicidal activity on a 0-100 scale, PANMI value was observed for Cc1nn(C)c(=O)c(-c2c(F)ccc(Cl)c2CCc2ccc(F)cc2)c1O [Compound 1.048] ?
Out: 30

In: What do you get for Cc1nn(C)c(=O)c(-c2c(F)ccc(Cl)c2CCc2ccc(C#N)cc2)c1O [Compound 1.024] ?
Out: 80

In: What do you get for Cc1nn(C)c(=O)c(-c2c(F)ccc(Cl)c2CCc2ccc(C(F)(F)F)nc2)c1O [Compound 1.042] ?
Out: 80

----------
System: Setaria faberi (SETFA)
Test: B2 Post-Emergence Efficacy - Test 2
Format: in vivo
Details: 15 g/Ha, 15 days after application, 0=no damage, 100=total kill
metric name: Herbicidal activity on a 0-100 scale, SETFA
Field format: numeric only.

Some entries whose results are on file:
Cc1nn(C)c(=O)c(-c2c(F)ccc(Cl)c2CCc2ccc(C#N)cc2)c1O; 20
Cc1nn(C)c(=O)c(-c2c(F)ccc(Cl)c2CCc2ccc(F)cc2)c1OC(=O)C(C)C; 0
Cc1nn(C)c(=O)c(-c2c(F)ccc(Cl)c2CCc2ccccc2C(F)(F)F)c1O; 0
Cc1nn(C)c(=O)c(-c2c(F)ccc(Cl)c2CCc2ccc(C(F)(F)F)nc2)c1O; 40
Cc1nn(C)c(=O)c(-c2c(F)ccc(Cl)c2CCc2ccc(Cl)cc2)c1OC(=O)C(C)C; 0

In: Would you mind telling me what Herbicidal activity on a 0-100 scale, SETFA value was observed for Cc1nn(C)c(=O)c(-c2c(F)ccc(Cl)c2CCc2ccc(F)cc2)c1O ?
Out: 0

----------
Test system: Glycine max (GLXMA)
Test: B2 Post-Emergence Efficacy - Test 2
Assay type: in vivo
Details: 15 g/Ha, 15 days after application, 0=no damage, 100=total kill
Overview of reported Herbicidal activity on a 0-100 scale, GLXMA across a group of compounds:
Field format: numeric only.

In: Would you mind telling me what Herbicidal activity on a 0-100 scale, GLXMA value was observed for Cc1nn(C)c(=O)c(-c2c(F)ccc(Cl)c2CCc2ccccc2C(F)(F)F)c1O ?
Out: 20

----------
Test system: Eleisine indica (ELEIN)
Assay: B2 Post-Emergence Efficacy - Test 2
Type: in vivo
Conditions: 250 g/Ha, 15 days after application, 0=no damage, 100=total kill
Protocol: Seeds of a variety of test species (see Table B1) were sown in standard soil in pots. […] After application, the test plants were grown in a glasshouse under controlled conditions (as above) and watered twice daily. Herbicidal activity was evaluated 15 days after application on a 0-100 scale. […]
metric name: Herbicidal activity on a 0-100 scale, ELEIN
Field format: numeric only.

Some entries whose results are on file:
Cc1nn(C)c(=O)c(-c2c(F)ccc(Cl)c2CCc2ccc(C#N)cc2)c1O [Compound 1.024]; 80
Cc1nn(C)c(=O)c(-c2c(F)ccc(Cl)c2CCc2ccc(F)cc2)c1O [Compound 1.048]; 80
Cc1nn(C)c(=O)c(-c2c(F)ccc(Cl)c2CCc2ccc(F)cc2)c1OC(=O)C(C)C [Compound 1.125]; 80
Cc1nn(C)c(=O)c(-c2c(F)ccc(Cl)c2CCc2ccc(C(F)(F)F)nc2)c1O [Compound 1.042]; 80
Cc1nn(C)c(=O)c(-c2c(F)ccc(Cl)c2CCc2ccccc2C(F)(F)F)c1O [Compound 1.066]; 70

In: What reported Herbicidal activity on a 0-100 scale, ELEIN corresponds to Cc1nn(C)c(=O)c(-c2c(F)ccc(Cl)c2CCc2ccc(Cl)cc2)c1OC(=O)C(C)C [Compound 1.089] on Eleisine indica (ELEIN)?
Out: 90

----------
Test system: Kochia scoparia (KSHSC)
Experiment: B2 Post-Emergence Efficacy - Test 2
Type: in vivo
Details: 30 g/Ha, 15 days after application, 0-100 scale
Procedure: Seeds of a variety of test species (see Table B1) were sown in standard soil in pots. […] After application, the test plants were grown in a glasshouse under controlled conditions (as above) and watered twice daily. Herbicidal activity was evaluated 15 days after application on a 0-100 scale. […]
metric name: Herbicidal activity KCHSC
Field format: numeric only.

Cc1nn(C)c(=O)c(-c2c(F)ccc(Cl)c2CCc2ccc(F)cc2)c1O [Compound 1.048]; 0
Cc1nn(C)c(=O)c(-c2c(F)ccc(Cl)c2CCc2ccc(Cl)cc2)c1OC(=O)C(C)C [Compound 1.089]; 20
Cc1nn(C)c(=O)c(-c2c(F)ccc(Cl)c2CCc2ccccc2C(F)(F)F)c1O [Compound 1.066]; 0
Cc1nn(C)c(=O)c(-c2c(F)ccc(Cl)c2CCc2ccc(F)cc2)c1OC(=O)C(C)C [Compound 1.125]; 2
Cc1nn(C)c(=O)c(-c2c(F)ccc(Cl)c2CCc2ccc(C(F)(F)F)nc2)c1O [Compound 1.042]; 10

Read the next record carefully.
In: Would you mind telling me what Herbicidal activity KCHSC value was observed for Cc1nn(C)c(=O)c(-c2c(F)ccc(Cl)c2CCc2ccc(C#N)cc2)c1O [Compound 1.024] ?
Out: 0

----------
Overview of reported Herbicidal activity AVEFA across a group of molecules:
System: Avena fatua (AVEFA)
Experiment: B2 Post-Emergence Efficacy - Test 2
Assay type: in vivo
Settings: 60 g/Ha, 15 days after application, 0-100 scale

Cc1nn(C)c(=O)c(-c2c(F)ccc(Cl)c2CCc2ccc(C#N)cc2)c1O; 30
Cc1nn(C)c(=O)c(-c2c(F)ccc(Cl)c2CCc2ccc(Cl)cc2)c1OC(=O)C(C)C; 70
Cc1nn(C)c(=O)c(-c2c(F)ccc(Cl)c2CCc2ccc(F)cc2)c1O; 60

In: Would you mind telling me what Herbicidal activity AVEFA value was observed for Cc1nn(C)c(=O)c(-c2c(F)ccc(Cl)c2CCc2ccccc2C(F)(F)F)c1O ?
Out: 40

In: What do you get for Cc1nn(C)c(=O)c(-c2c(F)ccc(Cl)c2CCc2ccc(F)cc2)c1OC(=O)C(C)C ?
Out: 60

In: What do you get for Cc1nn(C)c(=O)c(-c2c(F)ccc(Cl)c2CCc2ccc(C(F)(F)F)nc2)c1O ?
Out: 80

----------
Tested on: Bromus tectorum (BROTE)
Assay: B2 Post-Emergence Efficacy - Test 2
Assay type: in vivo
Conditions: 60 g/Ha, 15 days after application, 0-100 scale
metric name: Herbicidal activity BROTE
Field format: numeric only.

Cc1nn(C)c(=O)c(-c2c(F)ccc(Cl)c2CCc2ccccc2C(F)(F)F)c1O [Compound 1.066]; 60
Cc1nn(C)c(=O)c(-c2c(F)ccc(Cl)c2CCc2ccc(C(F)(F)F)nc2)c1O [Compound 1.042]; 70
Cc1nn(C)c(=O)c(-c2c(F)ccc(Cl)c2CCc2ccc(Cl)cc2)c1OC(=O)C(C)C [Compound 1.089]; 10

In: Would you mind telling me what Herbicidal activity BROTE value was observed for Cc1nn(C)c(=O)c(-c2c(F)ccc(Cl)c2CCc2ccc(F)cc2)c1O [Compound 1.048] ?
Out: 20

In: What do you get for Cc1nn(C)c(=O)c(-c2c(F)ccc(Cl)c2CCc2ccc(C#N)cc2)c1O [Compound 1.024] ?
Out: 10

In: What do you get for Cc1nn(C)c(=O)c(-c2c(F)ccc(Cl)c2CCc2ccc(F)cc2)c1OC(=O)C(C)C [Compound 1.125] ?
Out: 0
